Entries and their TGI
System: KM20L2 colon
Test: NCI tumour cell line growth inhibition, 48 h
Reported Metric: TGI

[[record]]
compound = "NC(Cc1c[nH]c2ccccc12)C(=O)O (stereo not drawn)"
tested_on = "KM20L2 colon"
reported_metric = "TGI"
result = "> 300 µM"

[[record]]
compound = "COc1cc2ccnc3c2c(c1OC)CC1CC(O)C(OC)CC31 (stereo not drawn)"
tested_on = "KM20L2 colon"
reported_metric = "TGI"
result = "> 100 µM"

[[record]]
compound = "C[Si](C)(C)/C=C\\CCCN1C(=O)CCC1=O"
tested_on = "KM20L2 colon"
reported_metric = "TGI"
result = "> 100 µM"


###

Recorded TGI for the following compounds
Test system: HOP-92 NSCLC
Assay: NCI tumour cell line growth inhibition, 48 h
Reported Metric: TGI

[[record]]
compound = "O[C@H]1[C@H](O)[C@H](O)CN2CCC[C@@H](O)[C@H]12"
result = "> 100 µM"

[[record]]
compound = "O=C1CC2C(=O)C1C(C(=O)O)C2C(=O)O (stereo not given)"
result = "> 100 µM"

[[record]]
compound = "Cc1ccc(Nc2nc(=O)[nH]c(=O)[nH]2)cc1N=[N+]=[N-]"
result = "> 100 µM"

[[record]]
compound = "CCOC(=O)C(C)(C)/C=C\\C(Cl)=C(Cl)Cl"
result = "> 100 µM"

[[record]]
compound = "NCCCn1c2c(c3cc4c(cc3c1=O)OCO4)C(=O)c1ccccc1-2"
result = "2.11 µM"


###

Test system: M14 melanoma
Test: NCI tumour cell line growth inhibition, 48 h
Some compounds, each annotated with its measured TGI.
Reported Metric: TGI

[[record]]
compound = "NCC1OC(n2cnc3c(=O)[nH]c(N)nc32)C(O)C1O (centres undefined)"
result = "> 100 µM"

[[record]]
compound = "O=C(O)c1cc(O)c2c(c1)Cc1cccc(O)c1C2=O"
result = "55.2 µM"

[[record]]
compound = "CC(C)(C)OC(=O)Nc1cc(-c2ccccc2)co1"
result = "> 100 µM"

[[record]]
compound = "COc1cccc(-c2nc(-c3ccc(NC(=O)c4ccccc4)cc3)[nH]c2-c2ccnc(Br)c2)c1"
result = "> 100 µM"


###

Parameter TGI: see the listing below.
Tested on: SF-295 CNS
Experiment: NCI tumour cell line growth inhibition, 48 h
Reported Metric: TGI (µM)

[[record]]
compound = "COc1c(B(O)O)cccc1-c1nc2c(F)cc3[nH]ncc3c2c2c1CCCC2"
censoring_operator = "="
number = 12.8

[[record]]
compound = "CC(Oc1ccc(OCC2CCCCC2)cc1)C(=O)O (centres undefined)"
censoring_operator = ">"
number = 100

[[record]]
compound = "O=S(=O)(O)c1ccc2c(N=Nc3ccccc3Cl)c(O)ccc2c1"
censoring_operator = ">"
number = 100

[[record]]
compound = "O=C(N/C(=C\\c1ccc([N+](=O)[O-])cc1)c1nc2ccc(Cl)cc2[nH]1)c1ccccc1"
censoring_operator = "="
number = 63.8

[[record]]
compound = "CN(C)CCCn1c(-c2cc(C(C)(C)C)c(O)c(C(C)(C)C)c2)csc1=Nc1ccccc1"
censoring_operator = "="
number = 3.26

[[record]]
compound = "COc1cc2ccnc3c2c(c1OC)CC1CC(O)C(OC)CC31 (centres undefined)"
censoring_operator = ">"
number = 100

[[record]]
compound = "C#Cc1cccc(Nc2ncnc3ccc(-c4cnc(Cl)c(NS(C)(=O)=O)c4)cc23)c1"
censoring_operator = "="
number = 2.17

[[record]]
compound = "O=C(N/N=C\\c1ccc([N+](=O)[O-])cc1)Nc1cccc2ccccc12"
censoring_operator = "="
number = 22.6

[[record]]
compound = "CC(=O)NC1C(OCc2ccccc2)OC(COC(=O)CCCCCNc2ccc([N+](=O)[O-])c3[nH]c4ccc(O)cc4c(=O)c23)C(O)C1OC(C)C(=O)N[C@@H](C)C(=O)N[C@H](CCC(=O)OCc1ccccc1)C(N)=O (some centres undefined)"
censoring_operator = "="
number = 17

[[record]]
compound = "NC(=O)c1cc(Cl)ccc1NC(=O)c1ccccc1-c1ccccc1"
censoring_operator = "="
number = 15.9

[[record]]
compound = "COc1cc2c(=O)n(CCCn3ccnc3)c3c4cc5c(cc4ccc3c2cc1OC)OCO5"
censoring_operator = "="
number = 12.5

[[record]]
compound = "COc1ccc(Nc2nc(N)c(C(=O)c3ccccc3)s2)cc1"
censoring_operator = ">"
number = 100

[[record]]
compound = "O=C1CC2C(=O)C1C(C(=O)O)C2C(=O)O (centres undefined)"
censoring_operator = ">"
number = 100

[[record]]
compound = "S=C(c1c[nH]c2ccccc12)N1CCN(c2ccccc2)CC1"
censoring_operator = ">"
number = 100

[[record]]
compound = "CC1(C)C(=O)C2(OS(=O)(=O)C(F)(F)F)CCC1C2 (centres undefined)"
censoring_operator = ">"
number = 100

[[record]]
compound = "COc1ccc(-c2nc(N)c3ncn(C4OC(CO)C(O)C4O)c3n2)cc1 (centres undefined)"
censoring_operator = ">"
number = 100

[[record]]
compound = "COC1OC(CBr)C(OC(c2ccccc2)(c2ccccc2)c2ccccc2)C(OC(c2ccccc2)(c2ccccc2)c2ccccc2)C1OC(c1ccccc1)(c1ccccc1)c1ccccc1 (centres undefined)"
censoring_operator = ">"
number = 100

[[record]]
compound = "COc1cc([C@@H]2c3cc4c(cc3[C@H](OC(C)=O)[C@H]3COC(=O)[C@H]23)OCO4)cc(OC)c1OC"
censoring_operator = ">"
number = 100

[[record]]
compound = "CC(C)c1cccc(C(C)C)c1N=C(N)C#N"
censoring_operator = ">"
number = 100

